Tested on: HIV-1RF
Assay explanation: XTT cytoprotection assay, HIV-1RF infection in CEM-SS cells
Format: cell-based
Condition context: Human immunodeficiency virus 1; inhibition of cytopathicity of HIV-1RF in CEM-SS cells
Recorded metric: pEC50
Just the number, please; pEC50 means minus log10 of the concentration in mol/L.

Check out these entries, answers already filled in.
CON=C(Cl)c1cc(/C(=C\CCCc2nc(C)no2)c2cc(C)c3onc(OC)c3c2)cc(C)c1OC
5.77
CO/N=C(\Cl)CCC/C=C(/c1cccc(C#N)c1)c1cc(C)c(OC)c(C(=O)SC)c1
5.84
CO/N=C(\Cl)CCC/C=C(\c1cc(C)c(OC)c(C(=O)SC)c1)c1cc(C)c2onc(OC)c2c1
5.62
CON=C(Cl)c1cc(/C(=C\CCCc2nc(C)no2)c2cccc(C#N)c2)cc(C)c1OC
5.46
CON=C(Cl)c1cc(/C(=C\CCCc2nnc(C)o2)c2cc(C)c3onc(OC)c3c2)cc(C)c1OC
5.28
CON=C(Cl)c1cc(/C(=C\CCCc2nc(C)no2)c2ccc(C#N)cc2)cc(C)c1OC
5.60
CON=C(F)c1cc(/C(=C\CCCc2nnc(C)o2)c2cc(C)c3oc(=O)n(C)c3c2)cc(C)c1OC
6.30
CON=C(F)c1cc(/C(=C\CCCc2nc(C)no2)c2ccc(C#N)cc2)cc(C)c1OC
5.69
CON=C(Cl)c1cc(/C(=C\CCCc2nnc(C)o2)c2cccc(C#N)c2)cc(C)c1OC
5.24
CO/N=C(\Cl)CCC/C=C(/c1ccc(C#N)cc1)c1cc(C)c(OC)c(C(=O)SC)c1
5.64

// returns reported pEC50 for input CON=C(Cl)c1cc(/C(=C\CCCc2nnc(C)o2)c2cc(C)c3oc(=O)n(C)c3c2)cc(C)c1OC
5.96

What value of pEC50 has been recorded for this entry: CON=C(F)c1cc(/C(=C\CCCc2nnc(C)o2)c2cc(C)c3onc(OC)c3c2)cc(C)c1OC
5.72

---

Assay explanation: Cytotoxicity for mock-infected CEM-SS cells
Type: cell-based
Condition context: human
Recorded metric: CC50 (µM)
Respond numerically; units are µM and should not be typed.

CON=C(Cl)c1cc(/C(=C\CCCc2nc(C)no2)c2cccc(C#N)c2)cc(C)c1OC
25.5

What does the record list as CC50 for CON=C(F)c1cc(/C(=C\CCCc2nnc(C)o2)c2cccc(C#N)c2)cc(C)c1OC ?
1.8

Requested field: CC50. Item: CON=C(Cl)c1cc(/C(=C\CCCc2nnc(C)o2)c2cc(C)c3onc(OC)c3c2)cc(C)c1OC
9.7

Recorded CC50 for CON=C(Cl)c1cc(/C(=C\CCCc2nnc(C)o2)c2cccc(C#N)c2)cc(C)c1OC , please?
13.2

// query CC50 value for entry CON=C(Cl)c1cc(/C(=C\CCCc2nnc(C)o2)c2cc(C)c3oc(=O)n(C)c3c2)cc(C)c1OC
4.7

Could you share which CC50 value was measured for CON=C(F)c1cc(/C(=C\CCCc2nc(C)no2)c2cc(C)c3onc(OC)c3c2)cc(C)c1OC ?
5.39

What CC50 value was documented for this compound, CON=C(F)c1cc(/C(=C\CCCc2nnc(C)o2)c2ccc(C#N)cc2)cc(C)c1OC ?
6.7

Quick check: CC50 of CON=C(F)c1cc(/C(=C\CCCc2nc(C)no2)c2ccc(C#N)cc2)cc(C)c1OC ?
13.4

Please look up its CC50: CON=C(F)c1cc(/C(=C\CCCc2nnc(C)o2)c2cc(C)c3onc(OC)c3c2)cc(C)c1OC
13.9

Given the entry CON=C(Cl)c1cc(/C(=C\CCCc2nc(C)no2)c2ccc(C#N)cc2)cc(C)c1OC , report its measured CC50.
16.9

Return reported CC50; argument: CON=C(F)c1cc(/C(=C\CCCc2nnc(C)o2)c2cc(C)c3oc(=O)n(C)c3c2)cc(C)c1OC
6.5

Param item = CON=C(F)c1cc(/C(=C\CCCN2CCOC2=O)c2ccc(C#N)cc2)cc(C)c1OC ; retrieve measured CC50.
6.7

// query CC50 value for entry CON=C(F)c1cc(/C(=C\CCCN2CCOC2=O)c2cccc(C#N)c2)cc(C)c1OC
1.66

For the compound shown here, CO/N=C(\Cl)CCC/C=C(\c1cc(C)c(OC)c(C(=O)SC)c1)c1cc(C)c2onc(OC)c2c1 , give the reported CC50.
7.2

Find the recorded CC50 belonging to CON=C(F)c1cc(/C(=C\CCCN2CCOC2=O)c2cc(C)c3onc(OC)c3c2)cc(C)c1OC and report it.
17.8

Dear colleague, I am looking for the recorded CC50 of the following compound: CON=C(Cl)c1cc(/C(=C\CCCN2CCOC2=O)c2cc(C)c3oc(=O)n(C)c3c2)cc(C)c1OC
5.99

---

Here, each record is paired with measured CC50 data.
Assay explanation: Cytotoxicity for mock-infected MT-4 cells
Assay type: cell-based
Condition context: human
Protocol: In Vitro Antiviral Assay. […] Biological Results. The antiviral activities of the ADAMs were evaluated by determining their ability to inhibit the enzymatic activity of HIV-1 RT in vitro (IC50) and protect HIV-infected cells from the cytopathic effects (EC50) of two viral strains (HIV-1RF and HIV-1IIIB). The cytotoxicities (CC50) of the ADAMs were determined on CEM-SS cells and MT-4 cells.
# output: bare number, implied unit µM

CO/N=C(\Cl)CCC/C=C(\c1cc(C)c(OC)c(C(=O)SC)c1)c1cc(C)c2oc(=O)n(C)c2c1
59
CON=C(Cl)c1cc(/C(=C\CCCc2nc(C)no2)c2cc(C)c3oc(=O)n(C)c3c2)cc(C)c1OC
29.4
CON=C(F)c1cc(/C(=C\CCCc2nnc(C)o2)c2cc(C)c3oc(=O)n(C)c3c2)cc(C)c1OC
26.5

Moving on to the next compound.
Consider the compound CON=C(Cl)c1cc(/C(=C\CCCc2nnc(C)o2)c2cc(C)c3oc(=O)n(C)c3c2)cc(C)c1OC and give its measured CC50.
19.9

---

Assay explanation: Cytotoxicity for mock-infected MT-4 cells
Format: cell-based
Condition context: human
Field: class. Source value: CC50. Ranges: one (below 20 µM), two (20 µM to below 100 µM), three (100 µM or more)

Solved entries:
CO/N=C(\Cl)CCC/C=C(/c1ccc(C#N)cc1)c1cc(C)c(OC)c(C(=O)SC)c1
three
CON=C(Cl)c1cc(/C(=C\CCCN2CCOC2=O)c2cc(C)c3oc(=O)n(C)c3c2)cc(C)c1OC
one
CO/N=C(\Cl)CCC/C=C(/c1cccc(C#N)c1)c1cc(C)c(OC)c(C(=O)SC)c1
three
CON=C(F)c1cc(/C(=C\CCCc2nc(C)no2)c2cccc(C#N)c2)cc(C)c1OC
one
CON=C(F)c1cc(/C(=C\CCCN2CCOC2=O)c2ccc(C#N)cc2)cc(C)c1OC
two

Each molecule maps to one class by CC50. Which class for CON=C(Cl)c1cc(/C(=C\CCCc2nnc(C)o2)c2cccc(C#N)c2)cc(C)c1OC ?
two

Tag the class for CON=C(Cl)c1cc(/C(=C\CCCc2nnc(C)o2)c2cc(C)c3onc(OC)c3c2)cc(C)c1OC
one

---

Here the recorded pEC50 is given for each entry.
Test system: HIV-1RF
Assay explanation: XTT cytoprotection assay, HIV-1RF infection in CEM-SS cells
Assay type: cell-based
Condition context: Human immunodeficiency virus 1; inhibition of cytopathicity of HIV-1RF in CEM-SS cells
pEC50: −log10 of the molar value.

Example compounds with recorded pEC50:
CON=C(F)c1cc(/C(=C\CCCN2CCOC2=O)c2cccc(C#N)c2)cc(C)c1OC
< 4.00
CON=C(Cl)c1cc(/C(=C\CCCc2nc(C)no2)c2cc(C)c3oc(=O)n(C)c3c2)cc(C)c1OC
6.29
CON=C(F)c1cc(/C(=C\CCCc2nnc(C)o2)c2cccc(C#N)c2)cc(C)c1OC
< 4.00
CO/N=C(\Cl)CCC/C=C(\c1cc(C)c(OC)c(C(=O)SC)c1)c1cc(C)c2oc(=O)n(C)c2c1
> 6.49
CON=C(F)c1cc(/C(=C\CCCc2nc(C)no2)c2cc(C)c3onc(OC)c3c2)cc(C)c1OC
5.69

pEC50 for CON=C(F)c1cc(/C(=C\CCCN2CCOC2=O)c2ccc(C#N)cc2)cc(C)c1OC ?
< 4.00

Which measured pEC50 value corresponds to CON=C(Cl)c1cc(/C(=C\CCCc2nnc(C)o2)c2ccc(C#N)cc2)cc(C)c1OC ?
5.59

So what's the measured pEC50 for this one? CON=C(Cl)c1cc(/C(=C\CCCN2CCOC2=O)c2cc(C)c3oc(=O)n(C)c3c2)cc(C)c1OC
< 4.00

---

As an illustration, consider measured IC50 for molecules on HIV-1 reverse transcriptase (Human immunodeficiency virus type 1 group M subtype B).
Give your result in µM as a bare value.

CON=C(Cl)c1cc(/C(=C\CCCc2nnc(C)o2)c2ccc(C#N)cc2)cc(C)c1OC [ADAM 23]
32.5
CO/N=C(\Cl)CCC/C=C(/c1cccc(C#N)c1)c1cc(C)c(OC)c(C(=O)SC)c1 [ADAM 28]
45.3
CO/N=C(\Cl)CCC/C=C(\c1cc(C)c(OC)c(C(=O)SC)c1)c1cc(C)c2oc(=O)n(C)c2c1 [ADAM 26]
3.4
CON=C(F)c1cc(/C(=C\CCCc2nc(C)no2)c2ccc(C#N)cc2)cc(C)c1OC [ADAM 14]
0.91
CON=C(F)c1cc(/C(=C\CCCc2nc(C)no2)c2cc(C)c3onc(OC)c3c2)cc(C)c1OC [ADAM 8]
1.85
CON=C(Cl)c1cc(/C(=C\CCCc2nnc(C)o2)c2cccc(C#N)c2)cc(C)c1OC [ADAM 21]
33.3
CON=C(F)c1cc(/C(=C\CCCN2CCOC2=O)c2cc(C)c3oc(=O)n(C)c3c2)cc(C)c1OC [ADAM 6]
2.37
CO/N=C(\Cl)CCC/C=C(/c1ccc(C#N)cc1)c1cc(C)c(OC)c(C(=O)SC)c1 [ADAM 29]
12
CO/N=C(\Cl)CCC/C=C(\c1cc(C)c(OC)c(C(=O)SC)c1)c1cc(C)c2onc(OC)c2c1 [ADAM 27]
36.4
CON=C(Cl)c1cc(/C(=C\CCCc2nnc(C)o2)c2cc(C)c3onc(OC)c3c2)cc(C)c1OC [ADAM 19]
33.8

Can you look up IC50 on HIV-1 reverse transcriptase (Human immunodeficiency virus type 1 group M subtype B) for CON=C(Cl)c1cc(/C(=C\CCCc2nnc(C)o2)c2cc(C)c3oc(=O)n(C)c3c2)cc(C)c1OC [ADAM 16] ?
8.2

State its IC50 on HIV-1 reverse transcriptase (Human immunodeficiency virus type 1 group M subtype B): CON=C(Cl)c1cc(/C(=C\CCCc2nc(C)no2)c2cc(C)c3onc(OC)c3c2)cc(C)c1OC [ADAM 20]
8.03

Checklist item: IC50 tested on HIV-1 reverse transcriptase (Human immunodeficiency virus type 1 group M subtype B), entry CON=C(Cl)c1cc(/C(=C\CCCN2CCOC2=O)c2ccc(C#N)cc2)cc(C)c1OC [ADAM 25] , value?
42.1
